Test system: HS 578T breast
Assay procedure: NCI tumour cell line growth inhibition, 48 h
Experimental endpoint: TGI

{"columns": ["Molecule", "Target system", "Experimental endpoint", "Assay value"],
 "data": [
  ["CC(=O)OCC1OC(n2c3c(c(-c4ccco4)c(C#N)c2=S)CCCC3)C(OC(C)=O)C(OC(C)=O)C1OC(C)=O (stereo unspecified)", "HS 578T breast", "TGI", "85.6 µM"],
  ["COc1ccc(-n2nc(C)c3c2N(C)C2(C)C[C@@H]4C3(C)[C@@H]3CC4(C2)N(C)c2c(c(C)nn2-c2ccc(OC)cc2)[C@H]3C)cc1 (stereo partly specified)", "HS 578T breast", "TGI", "98 µM"],
  ["Nc1ccc2c(c1)CN1C(=O)c3ccccc3C1=N2", "HS 578T breast", "TGI", "> 76 µM"],
  ["O=C(O)CCCc1nc2c(n1-c1ccccc1)C(=O)c1ccccc1C2=O", "HS 578T breast", "TGI", "> 100 µM"],
  ["CCCCCCCC(CC(=O)O)OC(=O)CC(CCCCCCC)OC1OC(C)C(O)C(O)C1OC1OC(C)C(O)C(O)C1O (stereo unspecified)", "HS 578T breast", "TGI", "> 100 µM"],
  ["CSC1(SC)CCCCCCCCCCC1", "HS 578T breast", "TGI", "> 100 µM"]
]}

----------
Test system: SNB-19 CNS
Assay procedure: NCI tumour cell line growth inhibition, 48 h
// TGI lookup, one value per entry
Experimental endpoint: TGI

{"columns": ["Compound", "Experimental endpoint", "Assay value"],
 "data": [
  ["COC(=O)C1CCC(=NC2c3ccccc3-c3ccccc32)N1 (centres undefined)", "TGI", "> 100 µM"],
  ["Cc1cc(S(=O)(=O)NC(=NCC(=O)NN)NN)c(S)cc1Cl", "TGI", "> 10 µM"],
  ["COc1ncnc2c(-c3ccco3)cn(COCc3ccccc3)c12", "TGI", "> 50 µM"],
  ["CC(=O)N[C@@H]1CCC[C@H](C(=O)Nc2cc(-c3cnn4c3CC(C)(C)C4)c(Cl)cn2)C1", "TGI", "> 100 µM"]
]}

----------
Measured TGI values are reported for all entries that follow.
Tested on: TK-10 renal
Assay procedure: NCI tumour cell line growth inhibition, 48 h

{"columns": ["Compound", "TGI"],
 "data": [
  ["O=C1c2cccc3cccc(c23)C(=O)N1CCCN1CCN(CCCN2C(=O)c3cccc4cccc(c34)C2=O)CC1", "> 100 µM"],
  ["CCOC(=O)Cc1csc(NC(=O)C(OC(=O)c2ccc(N)cc2)c2ccccc2)n1 (configuration not stated)", "> 100 µM"],
  ["CCCCC(=C=C1CCCCC1O)C1CCCN1C(=O)OC(C)(C)C (configuration not stated)", "29.8 µM"],
  ["CN(C)CCn1c(=O)c2ccc(NCCNCCO)c3c(=O)c4cc(O)ccc4n(c1=O)c23", "21.1 µM"],
  ["C=CCN1C(=O)/C(=C/c2ccc(Cl)cc2)N=C1SC1OC(COC(C)=O)C(OC(C)=O)C(OC(C)=O)C1OC(C)=O (configuration not stated)", "> 100 µM"],
  ["C=CC1(CCC(Br)C(C)(C)Cl)CO1 (configuration not stated)", "> 10 µM"],
  ["Nc1ccc2c(c1)CN1C(=O)c3ccccc3C1=N2", "> 125 µM"],
  ["COc1cc(C(=O)N/N=C/c2cccc([N+](=O)[O-])c2)cc(OC)c1OC", "> 100 µM"],
  ["CCc1nc(N)nc(N)c1-c1ccc([N+](=O)[O-])c(Cl)c1", "> 100 µM"],
  ["CC1SC2(CCCCC2)N(NC(=O)c2[nH]c3ccc(F)cc3c2-c2ccccc2)C1=O (configuration not stated)", "> 100 µM"],
  ["Cc1csc(Nc2nc(-c3cccc(Cl)c3)nc(C(Cl)(Cl)Cl)n2)n1", "14.4 µM"],
  ["CC[C@@]1(OC(=O)CN(C)C)C(=O)OCc2c1cc1n(c2=O)Cc2cc3ccccc3nc2-1", "7.85 µM"],
  ["COc1ncnc2c(-c3ccco3)cn(COCc3ccccc3)c12", "> 50 µM"],
  ["COc1cc(O)c2c(c1)C(O)C(O)CC1OC1C(=O)/C=C/CC(C)OC2=O (configuration not stated)", "17.5 µM"],
  ["O=C1/C(=C/c2ccccc2)CN(C(=O)OCC(Cl)(Cl)Cl)C/C1=C\\c1ccccc1", "17.1 µM"],
  ["CSc1nc(Br)nc2c1ncn2C1CC(Oc2ccc(C)cc2)C(COc2ccc(C)cc2)O1 (configuration not stated)", "> 100 µM"],
  ["O=[N+]([O-])c1cccc(-c2ncc(-c3ccc(Cl)cc3Cl)[nH]2)c1", "13.1 µM"],
  ["Cc1cnc2[nH]c(-c3ccccc3)cc(=O)c2c1", "99.5 µM"],
  ["COC(=O)C(=O)C(C(=O)C(=O)Nc1ccccc1C(N)=O)c1nc2ccc(C(=O)c3ccccc3)cc2[nH]c1=O (configuration not stated)", "> 100 µM"],
  ["C=C(CC1(CC(=C)c2ccc(C(=O)O)cc2)C(=O)N(C)C(=O)N(C)C1=O)c1ccc(C(=O)O)cc1", "> 100 µM"],
  ["CC(=O)Oc1ccc2c(c1)c1c(OC(C)=O)c3ccccc3c(OC(C)=O)c1n2Cc1cccc(C)c1", "> 100 µM"],
  ["CN1CCN(C(=S)SCN2C(=O)c3ccccc3S2(=O)=O)CC1", "> 100 µM"],
  ["COc1ccc(NC(=O)C2=C(SC)C(=O)N=C2N)cc1", "> 100 µM"],
  ["O=C(CN=Cc1cccs1)CSC(c1ccccc1)c1ccccc1", "> 100 µM"],
  ["CCCCCCCCCCCCCCCC(=O)OCC1OC(n2ccc(N)nc2=O)C(O)C1O (configuration not stated)", "> 100 µM"],
  ["O=C(O)CNC(=O)c1cccc2c(=O)c3ccccc3[nH]c12", "> 100 µM"],
  ["COc1cc(CC(=O)c2ccc3c(c2)OCO3)cc(OC)c1OC", "> 100 µM"],
  ["O=C(NCCCCl)c1c(O)c2ccccc2[nH]c1=O", "> 100 µM"],
  ["CCC1(O)CN(CCOC)[C@H]2C[C@@H]1C(=O)c1[nH]c3ccccc3c12 (some centres not stated)", "> 100 µM"],
  ["COc1ccc(-n2nc(C)c3c2N(C)C2(C)C[C@@H]4C3(C)[C@@H]3CC4(C2)N(C)c2c(c(C)nn2-c2ccc(OC)cc2)[C@H]3C)cc1 (some centres not stated)", "21.3 µM"],
  ["O=C(OCc1nc2ccc(Br)cc2c(=O)n1-c1ccccc1)c1ccccc1O", "> 100 µM"],
  ["Cn1c(COC(=O)NCCN2CCOCC2)nc2c(N3CCOCC3)nc(-c3ccccc3)nc21", "2.88 µM"]
]}

----------
Reported TGI is given for each of the following compounds.
Test system: HS 578T breast
Assay procedure: NCI tumour cell line growth inhibition, 48 h
Peptide text beside a SMILES is read from it. * marks the point of attachment. Boc = CC(C)(C)OC(=O)*

{"columns": ["Compound", "Target system", "TGI"],
 "data": [
  ["Cc1cc2c(cc1Cl)SC1=NN(C)C(c3ccccc3O)N1S2(=O)=O (centres undefined)", "HS 578T breast", "> 100 µM"],
  ["COc1cc2c(cc1OC)C1Cc3ccccc3CN1CCC2 (centres undefined)", "HS 578T breast", "> 100 µM"],
  ["COc1ccc(NC(=O)C2=C(SC)C(=O)N=C2N)cc1", "HS 578T breast", "> 100 µM"],
  ["COC(=O)C1=C(O)C(C(=O)OC)[C@@]2(O)[C@@H](C(=O)OC)C(c3ccc(OC(=O)C(CC(C)C)NC(C)=O)cc3)C[C@@H]1[C@@H]2C(=O)OC (some centres undefined)", "HS 578T breast", "> 100 µM"],
  ["CSCCC(NC(=O)C(CC(C)C)NC(=O)CNC(=O)OC(C)(C)C)C(=O)N(C)C (stereo not drawn) (Boc-Gly-Leu-Met-NMe2; configuration not given here)", "HS 578T breast", "> 100 µM"],
  ["C=C(CCC(C(=O)O)C1CCC2(C)C3=C(CCC12C)C1(C)CCC(O)C(C)(C)C1CC3)C(C)C (centres undefined)", "HS 578T breast", "> 100 µM"],
  ["COc1cc(C2S/C(=C/c3ccccc3)C(=O)N2c2ccc(Cl)cc2)cc(OC)c1OC (centres undefined)", "HS 578T breast", "> 100 µM"],
  ["COc1cc2c(cc1OC)[C@H]1C(=O)c3cc4c(cc3[C@H]1N(C)C2=O)OCO4", "HS 578T breast", "> 100 µM"],
  ["COC(=O)CCc1ccc2c(c1)CC1(C2)Cc2ccc(CCC(=O)OC)cc2C1", "HS 578T breast", "> 100 µM"]
]}
